test: In vivo biodistribution of [^203Pb]VMT01 in B16-F10 melanoma xenograft model; set-up: species or system athymic nude mice; conditions: both sexes, athymic nude, mouse, lungs, intravenous, 74 KBq, total radioactivity, 24 h post-injection, tail vein, read-out: Biodistribution, Lungs, Average
Where a SMILES comes first, the peptide text is derived from it. Bridges are numbered along the chain shown (N, C = ends). Triazole bridges read from a SMILES are 1,4-linked. Side-chain parts run from the residue outwards. [ ]: non-standard residue; d: D form. The star is where a group is joined. X1 = NC(=O)CN1CCN(CC(=O)O)CCN(CC(=O)*)CCN(CC(=O)O)CC1; Lys(N3) = [N-]=[N+]=NCCCC[C@H](N)C(=O)O; Nle = CCCC[C@H](N)C(=O)O; Pra = C#CC[C@H](N)C(=O)O; AEEA = NCCOCCOCC(=O)O
READOUT: tissue uptake at 24 h (%ID/g)
Hi! Could you send only the number? It should be in %ID/g, unit omitted.

The reported value for CCCC[C@H](NC(C)=O)C(=O)N[C@H]1Cc2cn(nn2)CCCC[C@@H](C(=O)N[C@@H](CCCCNC(=O)COCCOCCNC(=O)CN2CCN(CC(=O)O)CCN(CC(N)=O)CCN(CC(=O)O)CC2)C(N)=O)NC(=O)[C@H](Cc2c[nH]c3ccccc23)NC(=O)[C@H](CCCNC(=N)N)NC(=O)[C@@H](Cc2ccccc2)NC(=O)[C@H](Cc2c[nH]cn2)NC1=O [[^203Pb]VMT01, metal not drawn] (Ac-[Nle][Pra]H[dF]RW[Lys(N3)]K([AEEA-X1])-NH2; triazole 2-7) in terms of tissue uptake at 24 h is 0.2
